# TARGET_SYSTEM: Neutrophil elastase (Homo sapiens)
# Sequence (P08246 whole entry): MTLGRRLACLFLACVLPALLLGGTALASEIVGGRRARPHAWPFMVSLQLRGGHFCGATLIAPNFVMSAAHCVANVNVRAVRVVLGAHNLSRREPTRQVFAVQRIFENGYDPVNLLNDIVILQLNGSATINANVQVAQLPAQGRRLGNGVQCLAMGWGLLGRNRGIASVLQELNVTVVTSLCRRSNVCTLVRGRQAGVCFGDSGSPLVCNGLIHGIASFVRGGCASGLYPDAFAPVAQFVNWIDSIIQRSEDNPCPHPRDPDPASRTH
# PROTOCOL_DESCRIPTION: Inhibitory activity against human leukocyte elastase
METRIC_NAME: pKi
In textbook form, pKi equals minus log to base ten of the concentration in mol/L.

Fill blank: measured pKi of the molecule CC(C)C[C@H](NC(=O)[C@H](Cc1ccccc1)NC(=O)c1cnccn1)B(O)O [BORTEZOMIB] is ____.
5.64

---

Ki values for the molecules below.
# TARGET_SYSTEM: Proteasome
# PROTOCOL_DESCRIPTION: Inhibitory activity against 20S Proteasome
Non-standard residues stand in square brackets, D forms with d. Residues, ends and D or L forms follow the SMILES beside them. *: point of attachment. 1Nal = N[C@@H](Cc1cccc2ccccc12)C(=O)O; 2Nal = N[C@@H](Cc1ccc2ccccc2c1)C(=O)O; Cbz = O=C(OCc1ccccc1)*; CF3 = FC(F)(F)*; CH2Cl = ClC*
A number alone suffices; assume nM.

The examples below pair each entry with its known result.
Request the reported Ki associated with CC(C)C[C@@H](C=O)NC(=O)[C@H](CC(C)C)NC(=O)[C@H](CC(C)C)NC(=O)OCc1ccccc1 [MG-132] (Cbz-Leu-Leu-Leu-aldehyde)
4

For the molecule CC(C)C[C@H](NC(=O)[C@H](Cc1cccc2ccccc12)NC(=O)c1cnccn1)B(O)O , what Ki is on record?
0.18

Suppose we examine the molecule CC(C)C[C@@H](C=O)NC(=O)[C@H](CC(C)C)NC(=O)[C@H](Cc1ccc2ccccc2c1)NC(=O)OCc1ccccc1 (Cbz-[2Nal]-Leu-Leu-aldehyde) ; what Ki value has been reported?
0.24

Looking for the measured Ki of CC(C)C[C@H](NC(=O)OCc1ccccc1)C(=O)N[C@@H](CC(C)C)C(=O)N[C@@H](CC(C)C)C(=O)C(F)(F)F (Cbz-Leu-Leu-Leu-CF3) , can you help?
1400

Given CC(C)C[C@@H](C=O)NC(=O)[C@H](Cc1cccc2ccccc12)NC(=O)c1cnccn1 , state its recorded Ki.
97

---
Recorded Ki of CC(C)C[C@@H](C=O)NC(=O)[C@H](Cc1cccc2ccccc12)NC(=O)[C@H](Cc1ccc2ccccc2c1)NC(=O)OCc1ccccc1 (Cbz-[2Nal]-[1Nal]-Leu-aldehyde) , please.
0.015

For the molecule shown here, CC[C@@H](C)[C@@H](C=O)NC(=O)[C@H](CC(C)C)NC(=O)[C@H](CC(C)C)NC(=O)OCc1ccccc1 , give the reported Ki.
130

Entry CC(C)C[C@@H](C=O)NC(=O)[C@H](Cc1ccccc1)NC(=O)c1cnccn1 : reported Ki = ?
1600

Reported Ki for CC(C)C[C@H](NC(=O)OCc1ccccc1)C(=O)N[C@@H](CC(C)C)C(=O)N[C@@H](CC(C)C)C(=O)c1nc2ccccc2o1 : what is it?
214

Please look up its Ki: CC(C)C[C@H](NC(=O)[C@H](CC(C)C)NC(=O)[C@H](CC(C)C)NC(=O)OCc1ccccc1)C(=O)CCl (Cbz-Leu-Leu-Leu-CH2Cl)
22000

Consider the molecule CC(C)C[C@H](NC(=O)OCc1ccccc1)C(=O)N[C@@H](CC(C)C)C(=O)N[C@@H](C)C=O (Cbz-Leu-Leu-Ala-aldehyde) and give its measured Ki.
210

Given the molecule CCOC(=O)C(=O)C(=O)[C@H](CC(C)C)NC(=O)[C@H](CC(C)C)NC(=O)[C@H](CC(C)C)NC(=O)OCc1ccccc1 , what is its reported Ki?
45

Please look up its Ki: CC(C)C[C@H](NC(=O)OCc1ccccc1)C(=O)N[C@@H](CC(C)C)C(=O)NCC=O (Cbz-Leu-Leu-Gly-aldehyde)
3800

Data request, read-out Ki, for CC(C)C[C@H](NC(=O)OCc1ccccc1)C(=O)N[C@@H](CC(C)C)C(=O)N[C@H](C=O)Cc1ccc2ccccc2c1 (Cbz-Leu-Leu-[2Nal]-aldehyde)
25
